B1: RAB40B (parent)
chain: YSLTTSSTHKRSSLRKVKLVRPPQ

# Variants of: B1
# Run Description: protein stability index of a GFP-peptide fusion (GPS, HEK-293T) (PSI 1-6); higher = more stable;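 further: lentivirally expressed fusions sorted by FACS into six bins by GFP to DsRed ratio, PSI derived from sequencing read proportions per bin multiplied by bin number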
# Test Parameters: c terminus: a fixed tail appended
Observed Property: protein stability index
Give the figure by itself; no unit, no explanation.

> print(dat)
   variant.descriptor  recorded.number
1                V17T             3.09
2                 L3I             2.88
3                R15N             2.94
4                V20F             2.67
5                V17M             2.75

GET /value?item= K10S &field=protein stability index returns 3.02

GET /value?item= T8K &field=protein stability index returns 3.02

GET /value?item= P23R &field=protein stability index returns 3.33

GET /value?item= L19K &field=protein stability index returns 4.09

GET /value?item= S7H &field=protein stability index returns 3.07

GET /value?item= S7R &field=protein stability index returns 2.62

GET /value?item= R15A &field=protein stability index returns 2.49
